# Tested on: 997726-040-R-J2-PDC tumor spheroids, viability;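 further: spheroids exposed to compounds for seven days before readout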
# Protocol Details: Anticancer human tumor 997726-040-R-J2-PDC patient-derived squamous cell lung carcinoma cell line growth inhibition [PI3K]
# Protocol Conditions: second compound 0.0316 µM; first compound 3.16 µM; stronger effect = lower value; spheroids with HUVEC and MSC
# key: entry, value: viability, T/C
Give the value, in units of %, as a plain number.

Solved entries:
- Compound: "CCCS(=O)(=O)Nc1ccc(F)c(C(=O)c2c[nH]c3ncc(-c4ccc(Cl)cc4)cc23)c1F + COc1c(OCCCN2CCOCC2)ccc2c3n(c(=NC(=O)c4cnc(N)nc4)nc12)CCN3"
  Assay Value: 57.1
- Compound: "CCCS(=O)(=O)Nc1ccc(F)c(C(=O)c2c[nH]c3ncc(-c4ccc(Cl)cc4)cc23)c1F + CC(Nc1ccc2c(c1)OCCn1cc(N3C(=O)OCC3C(F)F)nc1-2)C(N)=O"
  Assay Value: 70.3
- Compound: "Cn1nccc1Nc1nccc(-c2ccn(C(CO)c3ccc(Cl)c(F)c3)c(=O)c2)n1 (stereo not given) + COc1c(OCCCN2CCOCC2)ccc2c3n(c(=NC(=O)c4cnc(N)nc4)nc12)CCN3"
  Assay Value: 27.3
- Compound: "C=CC(=O)N1CCN(c2nc(=O)n(-c3c(C)ccnc3C(C)C)c3nc(-c4c(O)cccc4F)c(F)cc23)C(C)C1 (stereo not given) + CC(Nc1ccc2c(c1)OCCn1cc(N3C(=O)OCC3C(F)F)nc1-2)C(N)=O"
  Assay Value: 72.1

Alright, here's another compound for you.
So what's the measured viability, T/C for this one? CC(C)NCC(C(=O)N1CCN(c2ncnc3c2C(C)CC3O)CC1)c1ccc(Cl)cc1 (stereo not given) + Cc1nc(NC(=O)N2CCCC2C(N)=O)sc1-c1ccnc(C(C)(C)C(F)(F)F)c1
12.7
